assay.protocol: Single-dose pharmacokinetics, IV and oral
protocol.conditions: male, CD-1, mouse, in vivo, iv, 2 mg kg-1
value.kind: concentration at 4 h (ng/mL)
Supply the numeric figure in ng/mL, leaving out any unit text.

Please fill in: concentration at 4 h reported for Nc1ccc(N2CCOCC2)c2nonc12 = 3.1

* * *

Test system: CYP3A
assay.protocol: CYP inhibition screening in microsomes
protocol.conditions: human, pH 7.4, probe testosterone
value.kind: inhibition at 10 min, 3 µM (%)
Give the value, in units of %, as a plain number.

Below, 3 molecules whose answers are already recorded.
[
  {
    "molecule": "Cc1cccc(NCc2ccc(O)c3ncccc23)c1C",
    "target.under.test": "CYP3A",
    "inhibition at 10 min, 3 µM [%]": 14.2
  },
  {
    "molecule": "CCN(CC)c1ccc(CN2CCc3nc(C)[nH]c(=O)c3C2)c(OC)c1",
    "target.under.test": "CYP3A",
    "inhibition at 10 min, 3 µM [%]": 1.5
  },
  {
    "molecule": "Cn1c(=O)[nH]c(=O)c2c1nc(S)n2CC(O)COc1ccc(Cl)cc1 (stereo not shown)",
    "target.under.test": "CYP3A",
    "inhibition at 10 min, 3 µM [%]": -6
  }
]

The reported inhibition at 10 min, 3 µM of the molecule COc1ccc(N2CCN(C(c3ccc(N(C)C)cc3)c3nnnn3C(C)(C)C)CC2)cc1 (stereo not shown) was 2.5

* * *

assay.protocol: Single-dose pharmacokinetics, IV and oral
protocol.conditions: male, CD-1, mouse, serum, po, 10 mg/kg
value.kind: Tmax (min)
# output: bare number, implied unit min

// field: Tmax; key: Nc1ccc(N2CCOCC2)c2nonc12 [compound 11] ; value = 15

* * *

assay.protocol: Single-dose pharmacokinetics, IV and oral
protocol.conditions: male, CD-1, mouse, serum, iv, 2 mg/kg
value.kind: half-life (min)
Report the value in min with no unit label.

Reported half-life for Nc1ccc(N2CCOCC2)c2nonc12 [compound 11] was 13.2

* * *

target.under.test: CYP2D6 (Homo sapiens)
Sequence (P10635 whole entry): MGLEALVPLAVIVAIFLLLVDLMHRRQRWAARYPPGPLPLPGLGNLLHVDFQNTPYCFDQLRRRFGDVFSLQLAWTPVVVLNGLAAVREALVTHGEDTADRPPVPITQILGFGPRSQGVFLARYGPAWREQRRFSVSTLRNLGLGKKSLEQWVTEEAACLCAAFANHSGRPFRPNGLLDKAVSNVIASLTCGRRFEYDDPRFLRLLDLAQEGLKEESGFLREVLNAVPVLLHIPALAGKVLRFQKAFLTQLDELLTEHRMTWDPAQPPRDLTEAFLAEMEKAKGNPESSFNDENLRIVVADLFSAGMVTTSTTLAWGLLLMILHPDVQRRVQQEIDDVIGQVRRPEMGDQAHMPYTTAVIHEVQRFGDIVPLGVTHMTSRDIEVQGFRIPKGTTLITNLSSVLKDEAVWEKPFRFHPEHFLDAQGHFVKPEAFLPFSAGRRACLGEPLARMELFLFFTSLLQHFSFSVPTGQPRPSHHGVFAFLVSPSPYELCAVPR
assay.protocol: CYP inhibition screening in microsomes
protocol.conditions: pH 7.4
inhibition at 10 min, 3 µM values by entry
# answer = value followed by unit

[
  {
    "molecule": "Cc1cccc(NCc2ccc(O)c3ncccc23)c1C",
    "inhibition at 10 min, 3 µM": "2.9%"
  },
  {
    "molecule": "CCN(CC)c1ccc(CN2CCc3nc(C)[nH]c(=O)c3C2)c(OC)c1",
    "inhibition at 10 min, 3 µM": "34.6%"
  }
]

// field: inhibition at 10 min, 3 µM; key: Cn1c(=O)[nH]c(=O)c2c1nc(S)n2CC(O)COc1ccc(Cl)cc1 (centres unmarked) ; value = -5.4%

Entry under test: Nc1ccc(N2CCOCC2)c2nonc12 . Its inhibition at 10 min, 3 µM was 7.8%

Briefly, inhibition at 10 min, 3 µM measured for COc1ccc(N2CCN(C(c3ccc(N(C)C)cc3)c3nnnn3C(C)(C)C)CC2)cc1 (centres unmarked) : 9.9%

* * *

Catalogue of IC50 values
target.under.test: caspase-8 (Homo sapiens, UniProt Q14790)
Sequence (Q14790 217-374 limits assumed, species assumed): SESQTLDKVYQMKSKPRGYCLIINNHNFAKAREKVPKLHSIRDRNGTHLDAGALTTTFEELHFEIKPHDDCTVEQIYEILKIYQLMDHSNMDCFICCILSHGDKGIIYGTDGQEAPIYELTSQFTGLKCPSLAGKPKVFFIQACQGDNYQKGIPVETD
Sequence (Q14790 385-479 limits assumed, species assumed): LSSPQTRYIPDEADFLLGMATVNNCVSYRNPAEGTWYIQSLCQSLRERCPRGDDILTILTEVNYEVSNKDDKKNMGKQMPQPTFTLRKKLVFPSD
assay.protocol: IC50 assay with recombinant caspase-8
protocol.conditions: mean±s.d.
Method: Caspase-3 and 8 – The enzyme was pre-incubated with inhibitor in assay buffer (100 mM HEPES pH 7.4, 0.1% CHAPS, 10% Sucrose) for 10 min at 37 °C. To determine the IC50 values of the compounds towards δ-secretase, cathepsin-S, cathepsin-L, caspase-3 and caspase-8, purified recombinant enzyme was incubated in appropriate assay buffers in the presence of increasing concentrations of inhibitors. […]

Known results for compounds:
[
  {
    "compound": "CCN(CC)c1ccc(CN2CCc3nc(C)[nH]c(=O)c3C2)c(OC)c1",
    "target.under.test": "caspase-8 (Homo sapiens, UniProt Q14790)",
    "value.kind": "IC50",
    "result": "> 100 µM"
  },
  {
    "compound": "N#CSc1cnc(N)s1",
    "target.under.test": "caspase-8 (Homo sapiens, UniProt Q14790)",
    "value.kind": "IC50",
    "result": "> 200 µM"
  },
  {
    "compound": "COc1ccc(N2CCN(C(c3ccc(N(C)C)cc3)c3nnnn3C(C)(C)C)CC2)cc1 (stereo not shown)",
    "target.under.test": "caspase-8 (Homo sapiens, UniProt Q14790)",
    "value.kind": "IC50",
    "result": "> 100 µM"
  }
]

Reported IC50 ( Cn1c(=O)[nH]c(=O)c2c1nc(S)n2CC(O)COc1ccc(Cl)cc1 (stereo not shown) ) = 76.1 µM
